Target: WEE1 (Homo sapiens, UniProt P30291)
Construct: Drug treated cells are fixed and stained with propidium iodide (PI); endogenous in cells
Sequence (P30291 whole entry): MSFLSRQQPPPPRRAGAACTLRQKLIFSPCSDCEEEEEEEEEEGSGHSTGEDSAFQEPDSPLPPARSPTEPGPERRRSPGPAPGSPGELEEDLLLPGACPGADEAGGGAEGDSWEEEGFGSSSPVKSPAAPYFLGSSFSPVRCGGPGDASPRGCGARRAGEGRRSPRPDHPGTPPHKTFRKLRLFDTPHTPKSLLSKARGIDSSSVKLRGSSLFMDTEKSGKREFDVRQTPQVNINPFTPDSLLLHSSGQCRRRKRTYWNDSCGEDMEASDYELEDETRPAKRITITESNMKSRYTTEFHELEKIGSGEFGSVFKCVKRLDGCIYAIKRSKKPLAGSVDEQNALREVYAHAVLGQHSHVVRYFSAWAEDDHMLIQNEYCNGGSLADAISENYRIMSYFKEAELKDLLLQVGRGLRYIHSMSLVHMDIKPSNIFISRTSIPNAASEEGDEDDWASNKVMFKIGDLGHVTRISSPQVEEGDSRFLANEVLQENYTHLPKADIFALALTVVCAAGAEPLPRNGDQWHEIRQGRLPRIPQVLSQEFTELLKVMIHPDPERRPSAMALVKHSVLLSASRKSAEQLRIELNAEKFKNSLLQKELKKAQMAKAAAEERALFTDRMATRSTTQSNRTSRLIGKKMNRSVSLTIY
Assay: Guava flow cytometry cell cycle assay (DNA content per cell, propidium iodide)
Type: cell-based
Conditions: single agent; unit assumed
VALUE_KIND: log10 WEE1 Guava MEC Guava MEC (log10 of the value in µM)
Recorded WEE1 Guava MEC Guava MEC (log10, µM)

Solved entries:
O=c1c2cnc(Nc3cnn(C4CCNCC4)c3)nc2c(C2CC2)cn1-c1c(Cl)cccc1Cl :: 0.40
CC(C)c1cn(-c2c(Cl)cccc2Cl)c(=O)c2cnc(Nc3cnn(C4CCNCC4)c3)nc12 :: 0.70
Cc1cccc(C)c1-n1cc(Br)c2nc(Nc3cnn(C4CCN(C)CC4)c3)ncc2c1=O :: 0.10

stdin: Consider the molecule CCc1cn(-c2c(Cl)cccc2Cl)c(=O)c2cnc(Nc3cnn(C4CCNCC4)c3)nc12 and give its measured log10 WEE1 Guava MEC Guava MEC.
stdout: 0.10

stdin: Consider the molecule CC(C)c1cn(-c2c(Cl)cccc2Cl)c(=O)c2cnc(Nc3cnn(C4CCN(C)CC4)c3)nc12 and give its measured log10 WEE1 Guava MEC Guava MEC.
stdout: 0.70

stdin: Consider the molecule NC1CCc2ccc(Nc3ncc4c(=O)n(-c5c(Cl)cccc5Cl)cc(Br)c4n3)cc21 (centres unmarked) and give its measured log10 WEE1 Guava MEC Guava MEC.
stdout: 0.70

stdin: Consider the molecule Cc1cn(-c2c(Cl)cccc2Cl)c(=O)c2cnc(Nc3cnn(C4CCN(C)CC4)c3)nc12 [Compound P2] and give its measured log10 WEE1 Guava MEC Guava MEC.
stdout: 0.70

stdin: Consider the molecule O=c1c2cnc(Nc3ccc4c(c3)CNCC4)nc2c(Br)cn1-c1c(Cl)cccc1Cl and give its measured log10 WEE1 Guava MEC Guava MEC.
stdout: -0.50
